Target: T1, PRLR-expressing cells (T47D) (Homo sapiens, UniProt P16471)
T1 construct: a native PRLR expressing cell line (T47D); endogenous in cells; host or cells: T47D
T1 sequence (P16471 25-622): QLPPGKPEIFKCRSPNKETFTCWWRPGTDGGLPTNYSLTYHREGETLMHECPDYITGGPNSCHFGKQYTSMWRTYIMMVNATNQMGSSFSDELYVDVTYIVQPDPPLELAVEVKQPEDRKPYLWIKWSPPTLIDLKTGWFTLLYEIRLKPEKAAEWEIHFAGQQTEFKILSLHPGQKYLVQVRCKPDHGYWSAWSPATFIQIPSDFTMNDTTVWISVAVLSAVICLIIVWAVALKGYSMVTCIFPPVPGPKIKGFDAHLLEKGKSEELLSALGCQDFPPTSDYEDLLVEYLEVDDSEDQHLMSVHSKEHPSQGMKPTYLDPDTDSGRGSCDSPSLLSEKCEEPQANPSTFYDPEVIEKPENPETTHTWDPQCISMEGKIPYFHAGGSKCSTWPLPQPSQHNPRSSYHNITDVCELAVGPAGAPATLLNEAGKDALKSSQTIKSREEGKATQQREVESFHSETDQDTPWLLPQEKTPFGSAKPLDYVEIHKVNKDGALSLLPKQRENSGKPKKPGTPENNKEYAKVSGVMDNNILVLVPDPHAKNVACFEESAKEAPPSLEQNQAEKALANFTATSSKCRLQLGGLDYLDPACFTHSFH
Experiment: Antibody binding and internalization by PRLR-expressing cells (imaging)
Assay type: cell-based
Settings: [mAb] (0.67 nM), whole cell alexa488 intensity at 37° C.
VALUE_TYPE: % Total Binding relative to Control I (%)
Supply the numeric figure in %, leaving out any unit text.

Query: Tell me measured % Total Binding relative to Control I for H1H6804P: anti-PRLR antibody, human IgG1 Fc; HCVR/LCVR SEQ ID NOs 242/250 (antibody, V domains shown, human IgG1 Fc) VH: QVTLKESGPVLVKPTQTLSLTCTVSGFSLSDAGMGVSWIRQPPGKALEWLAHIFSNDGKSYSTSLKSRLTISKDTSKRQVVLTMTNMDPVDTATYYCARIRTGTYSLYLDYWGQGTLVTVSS VL: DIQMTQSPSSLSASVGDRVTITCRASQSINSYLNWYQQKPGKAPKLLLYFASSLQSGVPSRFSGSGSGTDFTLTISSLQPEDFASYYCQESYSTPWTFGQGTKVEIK please.
Response: 149.6
